Provenance of the data: paper PMC7382147

- procedureDetails: Long-term stability of QC samples (−20 °C for 20 days)
- Type: physicochemical, rat
- conditionNotes: plasma QC, spiked 50 ng/mL
- Experimental: Aliquots of 100 μL plasma samples were mixed with 10 μL I.S. samples (1 μg/mL, in MeOH), then added with 500 μL ACN, respectively, and vortexed for 5 min, centrifugated at 10,000 rpm for 10 min, the supernatants were transferred into clean vials and dried in a vacuum centrifugal concentrator at 1200 rpm, 37 °C. […]
assayMetric: Long-term stability Mean
Answer shape: numeric part, then the unit.

Here's what some known entries look like.
smilesCode | assayMetric | observed
O=C(O)c1ccccc1O | Long-term stability Mean | 109.80%
COc1cc(O[C@@H]2O[C@H](CO)[C@@H](O)[C@H](O)[C@H]2O)cc(OC)c1OC | Long-term stability Mean | 86.86%
O=C1C[C@@H](c2ccc(O)cc2)Oc2cc(O)cc(O)c21 | Long-term stability Mean | 91.66%

Would you kindly share the measured Long-term stability Mean for "COc1ccc(-c2coc3cc(O[C@@H]4O[C@H](CO)[C@@H](O)[C@H](O)[C@H]4O)ccc3c2=O)cc1" ?
95.03%

----------
// reported Ordinary stability Mean for each item listed
- procedureDetails: Ordinary stability of QC samples (room temperature for 8 h)
- Type: physicochemical, rat
- conditionNotes: plasma QC, spiked 300 ng/mL, room temperature 8 h
Entry rule: numbers only, all in %.

Here's what some known entries look like.
molecule | unitsOfMeasure | Ordinary stability Mean
C=C1CC[C@@H]2[C@](C)(CO)[C@H](O)CC[C@@]2(C)[C@@H]1C/C=C1/C(=O)OC[C@H]1O [Analyte 12, andrographolide] | % | 107.50
COc1cc(O)c2c(=O)cc(-c3ccccc3)oc2c1OC [Analyte 19, 7-O-methylwogonin] | % | 96.04
C=C1CC[C@@H]2[C@](C)(CO[C@@H]3O[C@H](CO)[C@@H](O)[C@H](O)[C@H]3O)CCC[C@@]2(C)[C@@H]1CCC1=CCOC1=O [Analyte 5, neoandrographolide] | % | 103.80

Would you kindly share the measured Ordinary stability Mean for COc1cc(/C=C/C(=O)O)ccc1O [Analyte 6, trans-ferulic acid] ?
109.93

Would you kindly share the measured Ordinary stability Mean for C=C1CC[C@@H]2[C@](C)(CO)CCC[C@@]2(C)[C@@H]1CCC1=CCOC1=O [Analyte 17, andrograpanin] ?
117.99

Would you kindly share the measured Ordinary stability Mean for C=C1CC[C@@H]2[C@](C)(CO)[C@H](O)CC[C@@]2(C)[C@@H]1/C=C/C1=CCOC1=O [Analyte 15, 14-deoxy-11,12-didehydro-andrographolide] ?
119.43

----------
- procedureDetails: Freeze–thaw stability of QC samples (−20 °C, three times)
- Assay type: physicochemical, rat
- conditionNotes: plasma QC, spiked 250 ng/mL, freeze (−20 °C) and thaw three times
// reported Freeze–thaw stability Mean for each item listed
Entry rule: numbers only, all in %.

Would you kindly share the measured Freeze–thaw stability Mean for "O=C(O)c1ccccc1O" ?
102.50

Would you kindly share the measured Freeze–thaw stability Mean for "COc1ccc(-c2coc3cc(O[C@@H]4O[C@H](CO)[C@@H](O)[C@H](O)[C@H]4O)ccc3c2=O)cc1" ?
102.95

Would you kindly share the measured Freeze–thaw stability Mean for O=Cc1ccc2n1C[C@@]1(C[C@H](O)[C@@H](CO)O1)OC2 [Analyte 4, 9-epi-acortatarin A] ?
107.25

Would you kindly share the measured Freeze–thaw stability Mean for "COc1cc(O[C@@H]2O[C@H](CO)[C@@H](O)[C@H](O)[C@H]2O)cc(OC)c1OC" ?
99.57

Would you kindly share the measured Freeze–thaw stability Mean for "O=c1c(-c2ccc(O)cc2)coc2cc(O[C@@H]3O[C@H](CO)[C@@H](O)[C@H](O)[C@H]3O)cc(O)c12" ?
92.61

Would you kindly share the measured Freeze–thaw stability Mean for "O=C1C[C@@H](c2ccc(O)cc2)Oc2cc(O)cc(O)c21" ?
116.86

Would you kindly share the measured Freeze–thaw stability Mean for "O=Cc1ccc2n1C[C@]1(C[C@H](O)[C@@H](CO)O1)OC2" ?
92.61

Would you kindly share the measured Freeze–thaw stability Mean for "COc1ccccc1-c1cc(=O)c2c(O)cc(OC)c(OC)c2o1" ?
108.03

Would you kindly share the measured Freeze–thaw stability Mean for COC(=O)c1ccc(O)cn1 [Analyte 2, 5-hydroxypicolinic acid methyl ester] ?
99.07
